Items are presented alongside their recorded pest or weed control at 35 g/ha.
system: CYPES: yellow nutsedge (Cyperus esculentus); experiment: Post-emergent herbicidal test, yellow nutsedge; format: in vivo; settings: post-emergence, 336 h, 35 g ai/ha, 14 days after application, read-out: Visual Growth Reduction (%) 14 Days After Application CYPES
All answers are understood in %, so give the number only.

Recorded results for 8 compounds are shown here.
COC(=O)c1nc(-c2ccc(F)c3c2OC(F)(F)O3)c(F)c(N)c1Cl [Compound 7] :: 10
Nc1c(F)c(-c2ccc(F)c3c2OC(F)(F)O3)nc(C(=O)O)c1Cl [Compound 8] :: 0
C#CCOC(=O)c1nc(-c2ccc(Cl)c3c2OCO3)c(F)c(N)c1Cl [Compound 1C] :: 80
COC(=O)c1nc(-c2cccc3c2OC(F)(F)O3)c(F)c(N)c1Cl [Compound 4] :: 20
Nc1c(F)c(-c2cccc3c2OC(F)(F)O3)nc(C(=O)O)c1Cl [Compound 5] :: 0
Nc1c(F)c(-c2ccc(Cl)c3c2OCO3)nc(C(=O)OCc2ccccc2)c1Cl [Compound 1B] :: 85
COC(=O)c1nc(-c2ccc(Cl)c3c2OC(F)(F)O3)c(F)c(N)c1Cl [Compound 6] :: 25
Nc1c(F)c(-c2ccc(Cl)c3c2OCO3)nc(C(=O)O)c1Cl [Compound 1] :: 40

As a next step, examine the compound that follows.
Log: CYPES: yellow nutsedge (Cyperus esculentus), compound Nc1c(F)c(-c2ccc(Br)c3c2OC(F)(F)O3)nc(C(=O)O)c1Cl [Compound 11] , pest or weed control at 35 g/ha = 0

* * *

tested on: SETFA: giant foxtail (Setaria faberi); experiment: Post-emergent herbicidal test, giant foxtail; format: in vivo; settings: post-emergence, 336 h, 140 g ai/ha, 14 days after application, read-out: Visual Growth Reduction (%) 14 Days After Application SETFA
Items are presented alongside their recorded pest or weed control at 140 g/ha.
All answers are understood in %, so give the number only.

Recorded results for 4 compounds are shown here.
COC(=O)c1nc(-c2cccc3c2OC(F)(F)O3)c(F)c(N)c1Cl :: 0
COC(=O)c1nc(-c2ccc(I)c3c2OC(F)(F)O3)c(F)c(N)c1Cl :: 0
COC(=O)c1nc(-c2ccc(Cl)c3c2OC(F)(F)O3)c(F)c(N)c1Cl :: 3
COC(=O)c1nc(-c2ccc(Cl)c3c2OC(F)(F)O3)c(Cl)c(N)c1Cl :: 0

# pest or weed control at 140 g/ha (compound: COC(=O)c1nc(-c2ccc(Br)c3c2OC(F)(F)O3)c(F)c(N)c1Cl ) is 0

# pest or weed control at 140 g/ha (compound: C#CCOC(=O)c1nc(-c2ccc(Cl)c3c2OCO3)c(F)c(N)c1Cl ) is 60

# pest or weed control at 140 g/ha (compound: Nc1c(F)c(-c2ccc(Br)c3c2OC(F)(F)O3)nc(C(=O)O)c1Cl ) is 0

# pest or weed control at 140 g/ha (compound: COC(=O)c1nc(-c2ccc(F)c3c2OCO3)c(F)c(N)c1Cl ) is 20

# pest or weed control at 140 g/ha (compound: COC(=O)c1nc(-c2cccc3c2OCO3)c(F)c(N)c1Cl ) is 0

* * *

system: BRSNN: oilseed rape, canola (Brassica napus); experiment: Post-emergent herbicidal test, oilseed rape; type: in vivo; conditions: post-emergence, 336 h, 140 g ai/ha, 14 days after application, read-out: Visual Growth Reduction (%) 14 Days After Application BRSNN
Items are presented alongside their recorded pest or weed control at 140 g/ha.
All answers are understood in %, so give the number only.

Recorded results for 4 molecules are shown here.
COC(=O)c1nc(-c2cccc3c2OCO3)c(F)c(N)c1Cl [Compound 2] :: 90
Nc1c(F)c(-c2cccc3c2OCO3)nc(C(=O)O)c1Cl [Compound 3] :: 98
COC(=O)c1nc(-c2ccc(Cl)c3c2OCO3)c(F)c(N)c1Cl [Compound 1A] :: 98
COC(=O)c1nc(-c2cccc3c2OC(F)(F)O3)c(F)c(N)c1Cl [Compound 4] :: 95

As a next step, examine the molecule that follows.
# pest or weed control at 140 g/ha (molecule: Nc1c(F)c(-c2ccc(Cl)c3c2OCO3)nc(C(=O)O)c1Cl [Compound 1] ) is 100

* * *

Items are presented alongside their recorded pest or weed control at 140 g/ha.
System: SETFA: giant foxtail (Setaria faberi)
Experiment: Post-emergent herbicidal test, giant foxtail
Format: in vivo
Conditions: post-emergence, 336 h, 140 g ai/ha, 14 days after application, read-out: Visual Growth Reduction (%) 14 Days After Application SETFA
Description: Post-Emergent Test: Seeds or nutlets of the desired test plant species were planted in Sun Gro Metro-Mix® 360 planting mixture, which typically has a pH of 6.0 to 6.8 and an organic matter content of about 30 percent, in plastic pots with a surface area of 64 square centimeters (cm^2). When required to ensure good germination and healthy plants, a fungicide treatment and/or other chemical or physical treatment was applied. […]
All answers are understood in %, so give the number only.

Recorded results for 4 compounds are shown here.
Nc1c(F)c(-c2ccc(Cl)c3c2OCO3)nc(C(=O)OCc2ccccc2)c1Cl :: 50
Nc1c(F)c(-c2ccc(Cl)c3c2OC(F)(F)O3)nc(C(=O)O)c1Cl :: 0
COC(=O)c1nc(-c2ccc(F)c3c2OC(F)(F)O3)c(F)c(N)c1Cl :: 10
Nc1c(F)c(-c2cccc3c2OCO3)nc(C(=O)O)c1Cl :: 0

# pest or weed control at 140 g/ha (compound: COC(=O)c1nc(-c2ccc(Cl)c3c2OCO3)c(F)c(N)c1Cl ) is 30

# pest or weed control at 140 g/ha (compound: Nc1c(F)c(-c2ccc(F)c3c2OC(F)(F)O3)nc(C(=O)O)c1Cl ) is 0

# pest or weed control at 140 g/ha (compound: Nc1c(F)c(-c2ccc(I)c3c2OC(F)(F)O3)nc(C(=O)O)c1Cl ) is 0

# pest or weed control at 140 g/ha (compound: Nc1c(F)c(-c2ccc(Cl)c3c2OCO3)nc(C(=O)O)c1Cl ) is 50

# pest or weed control at 140 g/ha (compound: Nc1c(F)c(-c2cccc3c2OC(F)(F)O3)nc(C(=O)O)c1Cl ) is 0

* * *

test system: VIOTR: wild violet (Viola tricolor); experiment: Post-emergent herbicidal test, wild violet; type: in vivo; details: post-emergence, 336 h, 17.5 g ai/ha, 14 days after application, read-out: Visual Growth Reduction (%) 14 Days After Application VIOTR
recorded_endpoint: pest or weed control at 17.5 g/ha (%)
All answers are understood in %, so give the number only.

Recorded results for 5 molecules are shown here.
COC(=O)c1nc(-c2ccc(Cl)c3c2OCO3)c(F)c(N)c1Cl [Compound 1A] :: 53
COC(=O)c1nc(-c2ccc(Br)c3c2OC(F)(F)O3)c(F)c(N)c1Cl [Compound 9] :: 0
COC(=O)c1nc(-c2cccc3c2OC(F)(F)O3)c(F)c(N)c1Cl [Compound 4] :: 0
COC(=O)c1nc(-c2ccc(I)c3c2OC(F)(F)O3)c(F)c(N)c1Cl [Compound 10] :: 0
Nc1c(F)c(-c2cccc3c2OC(F)(F)O3)nc(C(=O)O)c1Cl [Compound 5] :: 0

# pest or weed control at 17.5 g/ha (molecule: COC(=O)c1nc(-c2ccc(F)c3c2OC(F)(F)O3)c(F)c(N)c1Cl [Compound 7] ) is 5

# pest or weed control at 17.5 g/ha (molecule: Nc1c(F)c(-c2cccc3c2OCO3)nc(C(=O)O)c1Cl [Compound 3] ) is 0

# pest or weed control at 17.5 g/ha (molecule: Nc1c(F)c(-c2ccc(Cl)c3c2OCO3)nc(C(=O)OCc2ccccc2)c1Cl [Compound 1B] ) is 40

# pest or weed control at 17.5 g/ha (molecule: COC(=O)c1nc(-c2cccc3c2OCO3)c(F)c(N)c1Cl [Compound 2] ) is 0

# pest or weed control at 17.5 g/ha (molecule: Nc1c(F)c(-c2ccc(I)c3c2OC(F)(F)O3)nc(C(=O)O)c1Cl [Compound 12] ) is 0

# pest or weed control at 17.5 g/ha (molecule: Nc1c(F)c(-c2ccc(Cl)c3c2OC(F)(F)O3)nc(C(=O)O)c1Cl [Compound 14] ) is 5

* * *

Items are presented alongside their recorded pest or weed control at 35 g/ha.
test system: VIOTR: wild violet (Viola tricolor); assay: Post-emergent herbicidal test, wild violet; assay type: in vivo; conditions: post-emergence, 336 h, 35 g ai/ha, 14 days after application, read-out: Visual Growth Reduction (%) 14 Days After Application VIOTR
All answers are understood in %, so give the number only.

Nc1c(F)c(-c2ccc(Cl)c3c2OC(F)(F)O3)nc(C(=O)O)c1Cl [Compound 14] :: 13
COC(=O)c1nc(-c2ccc(Br)c3c2OC(F)(F)O3)c(F)c(N)c1Cl [Compound 9] :: 0
Nc1c(F)c(-c2ccc(Cl)c3c2OCO3)nc(C(=O)OCc2ccccc2)c1Cl [Compound 1B] :: 75
Nc1c(F)c(-c2ccc(I)c3c2OC(F)(F)O3)nc(C(=O)O)c1Cl [Compound 12] :: 0

Log: VIOTR: wild violet (Viola tricolor), compound COC(=O)c1nc(-c2ccc(Cl)c3c2OC(F)(F)O3)c(F)c(N)c1Cl [Compound 6] , pest or weed control at 35 g/ha = 12

Log: VIOTR: wild violet (Viola tricolor), compound COC(=O)c1nc(-c2ccc(Cl)c3c2OCO3)c(F)c(N)c1Cl [Compound 1A] , pest or weed control at 35 g/ha = 95

Log: VIOTR: wild violet (Viola tricolor), compound COC(=O)c1nc(-c2ccc(F)c3c2OC(F)(F)O3)c(F)c(N)c1Cl [Compound 7] , pest or weed control at 35 g/ha = 10

Log: VIOTR: wild violet (Viola tricolor), compound Nc1c(F)c(-c2cccc3c2OC(F)(F)O3)nc(C(=O)O)c1Cl [Compound 5] , pest or weed control at 35 g/ha = 0
